target: recombinant human GALK1 (Homo sapiens, UniProt P51570); assay: hGALK1 biochemical activity assay (Kinase-Glo Plus, ATP depletion); conditions: recombinant human GALK1, Kinase-Glo Plus ATP depletion; bracketed figure in the cell, e.g. (−1.2), is not defined in the text shown; read-out: hGALK
Sequence (P51570 whole entry): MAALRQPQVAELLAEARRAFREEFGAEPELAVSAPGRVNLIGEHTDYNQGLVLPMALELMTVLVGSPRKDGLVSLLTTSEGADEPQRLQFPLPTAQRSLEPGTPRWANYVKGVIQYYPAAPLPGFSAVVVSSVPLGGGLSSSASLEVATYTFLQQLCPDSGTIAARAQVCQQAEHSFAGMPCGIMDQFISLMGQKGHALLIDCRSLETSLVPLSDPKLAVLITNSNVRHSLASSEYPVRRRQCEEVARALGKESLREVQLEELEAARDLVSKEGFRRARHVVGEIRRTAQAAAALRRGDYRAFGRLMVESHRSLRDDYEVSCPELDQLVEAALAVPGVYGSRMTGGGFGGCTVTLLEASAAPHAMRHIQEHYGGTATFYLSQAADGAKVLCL
In plain terms, low IC50, meaning strictly below 8 µM, gives criterion met, and everything else gives criterion not met.

Does the reported IC50 of CC1=C(C(=O)Nc2nncs2)C(c2ccccc2C)N=C(Nc2nc3ccccc3o2)N1 (centres unmarked) [Compound 267] stay below 8 µM?
criterion not met

Now the compound CC1=C(C(=O)Nc2nncs2)C(c2n[nH]cc2Br)N=C(Nc2nc3ccccc3o2)N1 (centres unmarked) [Compound 268]
criterion met

Now the compound CC1=C(C(=O)Nc2nncs2)C(c2ccc(C)cc2Cl)N=C(Nc2nc3ccccc3o2)N1 (centres unmarked) [Compound 264]
criterion met

Now the compound O=C1NCCC2=C1C(c1ccccc1Cl)N=C(Nc1nc3ccccc3o1)N2 (centres unmarked) [Compound 245]
criterion not met

Now the compound CC(C)C1=C(C(=O)Nc2nncs2)C(c2ccccc2Cl)N=C(Nc2nc3ccccc3o2)N1 (centres unmarked) [Compound 250]
criterion met
